Source: paper PMC3794606

Biological target: T1, p73 DBD S139F (human, UniProt O15350 115-312, S139F)
T1 sequence: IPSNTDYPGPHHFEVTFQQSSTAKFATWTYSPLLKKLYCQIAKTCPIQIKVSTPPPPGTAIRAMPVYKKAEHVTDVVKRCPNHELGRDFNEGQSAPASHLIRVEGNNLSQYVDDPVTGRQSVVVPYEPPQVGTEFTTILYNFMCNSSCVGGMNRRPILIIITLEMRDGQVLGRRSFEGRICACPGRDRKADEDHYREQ
Assay: fluorescence polarization; Hill 1.9 ± 0.2; FP: 50 nM fluorescein-DNA, 0-20000 nM protein, 30 min on ice then room temperature; buffer, salt and pH not stated. Crystals: 0.1 M Tris pH 8.5, 50-125 mM sodium acetate, 20-24% PEG 3350, room temperature
Details: protein: recombinant; chain copies: 2; label: fluorescein
parameter-measured: Kd (nM)
Your answer should be a plain number; it is taken to be in nM.

Ask | Form field: reported Kd of 20mer GGGCA full-site (4/4 RY) (dsDNA) DNA 1: GGGCATGCCCGGGCATGCCC DNA 2: GGGCATGCCCGGGCATGCCC
Reply | 230
